Biological target: MCH-5 (Homo sapiens)
Assay: Dissociation constant Ki and irreversible rate constant k3 for irreversible inhibitors, Mch5
Format: biochemical
Conditions: continuous assay 60 min, reaction initiated by adding enzyme
Each item that follows carries a reported MCH-5 k3/Ki.

# molecule, MCH-5 k3/Ki
measured = [
    ("CC(C)C[C@H](NC(=O)COc1ccccc1-c1ccccc1)C(=O)N[C@@H](CC(=O)O)C(=O)COc1c(F)c(F)cc(F)c1F", "6,190 M^−1s^−1"),
    ("CC(C)[C@H](NC(=O)COc1ccc2ccccc2c1)C(=O)N[C@@H](CC(=O)O)C(=O)COc1c(F)cc(F)cc1F", "3,990 M^−1s^−1"),
    ("CC(C)[C@H](NC(=O)COc1ccccc1-c1ccccc1)C(=O)N[C@@H](CC(=O)O)C(=O)COc1c(F)c(F)cc(F)c1F", "16,600 M^−1s^−1"),
    ("CC(C)[C@H](NC(=O)COc1cccc2ccccc12)C(=O)N[C@@H](CC(=O)O)C(=O)COP(C)(=O)c1ccccc1 (stereo partly shown)", "15,500 M^−1s^−1"),
]

----------
Below: a set of entries, each annotated with reported pIC50.
Target: mICE (Mus musculus, UniProt P29452)
Sequence (P29452 123-296 limits assumed): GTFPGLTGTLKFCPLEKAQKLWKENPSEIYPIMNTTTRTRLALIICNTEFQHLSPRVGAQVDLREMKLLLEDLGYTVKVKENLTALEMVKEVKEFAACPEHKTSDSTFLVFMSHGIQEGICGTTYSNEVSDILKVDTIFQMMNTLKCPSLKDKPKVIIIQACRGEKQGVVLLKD
Sequence (P29452 315-402 limits assumed): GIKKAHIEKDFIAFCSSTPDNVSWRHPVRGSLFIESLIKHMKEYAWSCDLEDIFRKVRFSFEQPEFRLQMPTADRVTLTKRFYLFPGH
Assay: Fluorescence enzyme assay, IC50 determination, ICE
Assay type: biochemical
Conditions: Table 3; method of Preparation 3A; read-out: mICE I50
pIC50: −log10 of the molar value.

# compound, pIC50
data = [
    ("Cc1ccc2ccccc2c1OCC(=O)N[C@@H](CC(C)C)C(=O)N[C@H](C=O)CC(=O)O [Example 26]", 6.07),
    ("CC(C)C[C@H](NC(=O)COc1ccc2ccccc2c1)C(=O)N[C@H](C=O)CC(=O)O [Example 13]", 5.59),
    ("CC(C)C[C@H](NC(=O)COc1cccc(-c2ccccc2)c1)C(=O)N[C@H](C=O)CC(=O)O [Example 40]", 5.96),
    ("CC(C)C[C@H](NC(=O)COc1cccc2ncccc12)C(=O)N[C@H](C=O)CC(=O)O [Example 32]", 5.28),
    ("COc1ccc(OCC(=O)N[C@@H](CC(C)C)C(=O)N[C@H](C=O)CC(=O)O)c2ccccc12 [Example 27]", 6.08),
    ("CC(C)C[C@H](NC(=O)C(C)Oc1ccccc1)C(=O)N[C@H](C=O)CC(=O)O (stereo partly drawn) [Example 36]", 4.69),
]

----------
Molecular target: mICE (Mus musculus, UniProt P29452)
Experiment: Dissociation constant Ki and irreversible rate constant k3 for irreversible inhibitors, ICE
Conditions: continuous assay 60 min, reaction initiated by adding enzyme
pKi: −log10 of the molar value.
Returns 1 if the recorded pKi is greater than or equal to 7, and 0 otherwise.

# compound, assigned label
data = [
    ("CC(C)[C@H](NC(=O)COc1ccccc1-c1ccccc1)C(=O)N[C@@H](CC(=O)O)C(=O)COC(=O)c1c(Cl)cccc1Cl [Example 150]", 0),
    ("CC(C)C[C@H](NC(=O)COc1ccccc1-c1ccccc1)C(=O)N[C@@H](CC(=O)O)C(=O)COc1c(F)cc(F)cc1F [Example 163]", 0),
    ("CC(C)C[C@H](NC(=O)COc1ccccc1-c1ccccc1)C(=O)N[C@@H](CC(=O)O)C(=O)COc1c(F)c(F)cc(F)c1F [Example 164]", 0),
    ("CC(C)[C@H](NC(=O)COc1ccc2ccccc2c1)C(=O)N[C@@H](CC(=O)O)C(=O)COc1c(F)cc(F)cc1F [Example 156]", 0),
    ("CC(C)C[C@H](NC(=O)COc1c(C(=O)O)ccc2ccccc12)C(=O)N[C@@H](CC(=O)O)C(=O)COP(=O)(c1ccccc1)c1ccccc1 [Example 166]", 1),
    ("CC(C)[C@H](NC(=O)COc1ccccc1-c1ccccc1)C(=O)N[C@@H](CC(=O)O)C(=O)COc1c(F)c(F)cc(F)c1F [Example 152]", 0),
    ("C[C@H](NC(=O)COc1ccccc1-c1ccccc1)C(=O)NC(CC(=O)O)C(=O)COc1c(F)c(F)cc(F)c1F (stereo partly shown) [Example 177]", 0),
    ("CC(C)[C@H](NC(=O)COc1cccc2ccccc12)C(=O)N[C@@H](CC(=O)O)C(=O)COP(C)(=O)c1cccc2ccccc12 (stereo partly shown) [Example 110]", 1),
    ("CC(C)[C@H](NC(=O)COc1ccc2ccccc2c1)C(=O)N[C@@H](CC(=O)O)C(=O)COC(=O)c1c(Cl)cccc1Cl [Example 155]", 0),
]

----------
Each entry below carries its reported Ki.
Biological target: UniProt:P42574
Sequence (P42574 29-175 limits assumed, species assumed): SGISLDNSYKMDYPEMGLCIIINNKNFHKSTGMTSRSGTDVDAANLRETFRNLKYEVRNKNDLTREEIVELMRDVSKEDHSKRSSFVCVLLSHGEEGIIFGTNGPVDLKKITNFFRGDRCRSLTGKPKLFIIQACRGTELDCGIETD
Sequence (P42574 176-277 limits assumed, species assumed): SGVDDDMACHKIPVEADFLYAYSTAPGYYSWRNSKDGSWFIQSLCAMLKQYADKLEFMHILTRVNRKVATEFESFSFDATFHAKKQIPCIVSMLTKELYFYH
Experiment: Dissociation constant Ki and irreversible rate constant k3 for irreversible inhibitors, CPP32
Details: continuous assay 60 min, reaction initiated by adding enzyme
endpoint label: Ki (µM)

# compound, endpoint label, value observed
data = [
    ("Cc1cc(OCC(=O)[C@H](CC(=O)O)NC(=O)[C@@H](NC(=O)COc2cccc3ccccc23)C(C)C)cc(=O)o1", "Ki", 0.22),
    ("CC(C)[C@H](NC(=O)COc1ccc2ccccc2c1)C(=O)N[C@@H](CC(=O)O)C(=O)COC(=O)c1c(Cl)cccc1Cl", "Ki", 0.047),
    ("CC(C)C[C@H](NC(=O)COc1ccccc1-c1ccccc1)C(=O)NC(CC(=O)O)C(=O)CF (mixture of isomers)", "Ki", 0.042),
    ("COC(=O)c1cc(OCC(=O)[C@H](CC(=O)O)NC(=O)[C@@H](NC(=O)COc2cccc3ccccc23)C(C)C)no1", "Ki", 0.054),
]

----------
Molecular target: MCH-2 (Homo sapiens)
Sequence (P55212 24-179 limits assumed): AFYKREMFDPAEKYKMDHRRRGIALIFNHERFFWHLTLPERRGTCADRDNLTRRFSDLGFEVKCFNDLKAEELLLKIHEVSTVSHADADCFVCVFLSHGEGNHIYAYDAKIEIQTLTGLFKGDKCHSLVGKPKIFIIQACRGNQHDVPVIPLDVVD
Sequence (P55212 194-293 limits assumed): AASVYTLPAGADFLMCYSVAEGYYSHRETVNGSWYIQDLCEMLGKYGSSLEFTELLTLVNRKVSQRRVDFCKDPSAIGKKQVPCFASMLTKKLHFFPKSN
Assay: Fluorescence enzyme assay, IC50 determination, Mch2
Type: biochemical
Conditions: Ac-DEVD-AMC substrate, 30 min preincubation, room temperature; read-out: MCH-2 IC50
Where a SMILES comes first, the peptide text is derived from it. The star is where a group is joined. Cbz = O=C(OCc1ccccc1)*

# compound, IC50
measured = [
    ("CC(C)[C@H](NC(=O)OCc1ccccc1)C(=O)N[C@@H](C)C(=O)N[C@H](C=O)CC(=O)O [reference, Cbz-ValAlaAsp-H, reference compound] (Cbz-Val-Ala-Asp-aldehyde)", "> 10 µM"),
    ("O=C[C@H](CC(=O)O)NC(=O)[C@@H]1Cc2ccccc2N1C(=O)COc1cccc2ccccc12 [Example 186]", "> 50 µM"),
    ("CC(C)[C@H](NC(=O)COc1cccc2ccccc12)C(=O)N[C@H](C=O)CC(=O)O [Example 2]", "> 10 µM"),
]

----------
# pKi per entry
Molecular target: UniProt:Q14790
Experiment: Dissociation constant Ki and irreversible rate constant k3 for irreversible inhibitors, Mch5
Settings: continuous assay 60 min, reaction initiated by adding enzyme
pKi: −log10 of the molar value.

# molecule, pKi
records = [
    ("CC(C)[C@H](NC(=O)COc1ccccc1-c1ccccc1)C(=O)N[C@@H](CC(=O)O)C(=O)COC(=O)c1c(Cl)cccc1Cl [Example 150]", 6.90),
    ("CC(C)[C@H](NC(=O)COc1cccc2ccccc12)C(=O)N[C@@H](CC(=O)O)C(=O)COc1c(F)c(F)c(F)c(F)c1F [Example 80]", 6.84),
    ("CC(C)C[C@H](NC(=O)COc1c(C(=O)O)ccc2ccccc12)C(=O)N[C@@H](CC(=O)O)C(=O)COc1c(F)c(F)cc(F)c1F [Example 167]", 6.90),
    ("CC(C)[C@H](NC(=O)COc1ccc2ccccc2c1)C(=O)N[C@@H](CC(=O)O)C(=O)COc1c(F)c(F)cc(F)c1F [Example 157]", 7.14),
    ("CC(C)[C@H](NC(=O)COc1cccc2ccccc12)C(=O)N[C@@H](CC(=O)O)C(=O)COc1c(F)cccc1F [Example 71]", 6.92),
    ("CC(C)[C@H](NC(=O)COc1ccccc1-c1ccccc1)C(=O)N[C@@H](CC(=O)O)C(=O)COc1c(F)c(F)cc(F)c1F [Example 152]", 7.18),
]

----------
Target: MCH-5 (Homo sapiens, UniProt Q14790)
Sequence (Q14790 217-374 limits assumed, species assumed): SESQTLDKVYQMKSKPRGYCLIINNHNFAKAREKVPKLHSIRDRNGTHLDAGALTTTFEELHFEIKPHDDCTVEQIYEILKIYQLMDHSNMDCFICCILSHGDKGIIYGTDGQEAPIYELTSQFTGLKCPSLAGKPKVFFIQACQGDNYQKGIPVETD
Sequence (Q14790 385-479 limits assumed, species assumed): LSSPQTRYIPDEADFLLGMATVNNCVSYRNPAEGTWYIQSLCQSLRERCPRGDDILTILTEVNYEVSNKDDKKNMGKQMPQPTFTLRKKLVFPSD
Assay: Fluorescence enzyme assay, IC50 determination, Mch5
Assay type: biochemical
Details: Table 3; method of Preparation 3A; read-out: MCH5 I50
Protocol: Fluorescence enzyme assays detecting the activity of the compounds of Formula 1 utilizing the recombinant ICE and CPP32 enzymes are performed essentially according to Thornberry et al. (Nature, 356:768:774 (1992)) and Nicholson et al. (Nature, 376:37–43 (1995)) respectively, (herein incorporated by reference) in 96 well microtiter plates. […]
Where a SMILES comes first, the peptide text is derived from it. The star is where a group is joined. Hydrocinnamoyl = O=C(CCc1ccccc1)*

# compound, IC50
rows = [
    ("CC(C)C[C@H](NC(=O)CCc1ccccc1)C(=O)N[C@H](C=O)CC(=O)O [Example 35] (Hydrocinnamoyl-Leu-Asp-aldehyde)", "> 10 µM"),
    ("CC(C)C[C@H](NC(=O)CCOc1ccccc1)C(=O)N[C@H](C=O)CC(=O)O", "> 10 µM"),
    ("CC(C)C[C@H](NC(=O)COc1ccnc2ccccc12)C(=O)N[C@H](C=O)CC(=O)O", "> 50 µM"),
    ("CC(C)C[C@H](NC(=O)CCCc1ccc2ccccc2c1)C(=O)N[C@H](C=O)CC(=O)O", "> 50 µM"),
    ("CC(C)C[C@H](NC(=O)COc1ccccc1)C(=O)N[C@H](C=O)CC(=O)O", "> 10 µM"),
    ("CC(C)C[C@H](NC(=O)C(C)Oc1ccccc1)C(=O)N[C@H](C=O)CC(=O)O (stereo partly shown)", "> 10 µM"),
    ("CC(C)C[C@H](NC(=O)COc1nccc2ccccc12)C(=O)N[C@H](C=O)CC(=O)O", "> 50 µM"),
]

Data provenance is patent US7157430B2.
